System: HepG2
Test: hypoxic/normoxic cytotoxicity, HepG2
Assay type: cell-based
Details: Homo sapiens, HepG2, HepG2, Air, 3 h exposure, survival at 72 h, n=3; conjugate as TPZ groups
assay_endpoint: IC50

[[record]]
compound_smiles = "O=C(NCCc1ccc(O)c(O)c1)Nc1n[n+]([O-])c2ccccc2[n+]1[O-]"
assay_endpoint = "IC50"
result = "13.8 µM"

[[record]]
compound_smiles = "Nc1n[n+]([O-])c2ccccc2[n+]1[O-]"
assay_endpoint = "IC50"
result = "228 µM"


---

Test system: SKBr3
Assay: hypoxic/normoxic cytotoxicity, SKBr3
Format: cell-based
Conditions: Homo sapiens, SK-BR-3, SKBr3, 0.1% O2, 3 h exposure, survival at 72 h, n=3; conjugate as TPZ groups
pIC50: −log10 of the molar value.
Parameter: pIC50. Scope: all listed entries.
assay_endpoint: pIC50

[[record]]
compound_smiles = "O=C(NCCc1ccc(O)c(O)c1)Nc1n[n+]([O-])c2ccccc2[n+]1[O-]"
result_number = 4.89

[[record]]
compound_smiles = "Nc1n[n+]([O-])c2ccccc2[n+]1[O-]"
result_number = 5.20

